Readings of pIC50 for the listed compounds
- target_entity: Pol theta (1-899) (Homo sapiens, UniProt O75417)
- Construct: Pol theta (1-899) (5 nM) in assay buffer
- Sequence (O75417 1-899): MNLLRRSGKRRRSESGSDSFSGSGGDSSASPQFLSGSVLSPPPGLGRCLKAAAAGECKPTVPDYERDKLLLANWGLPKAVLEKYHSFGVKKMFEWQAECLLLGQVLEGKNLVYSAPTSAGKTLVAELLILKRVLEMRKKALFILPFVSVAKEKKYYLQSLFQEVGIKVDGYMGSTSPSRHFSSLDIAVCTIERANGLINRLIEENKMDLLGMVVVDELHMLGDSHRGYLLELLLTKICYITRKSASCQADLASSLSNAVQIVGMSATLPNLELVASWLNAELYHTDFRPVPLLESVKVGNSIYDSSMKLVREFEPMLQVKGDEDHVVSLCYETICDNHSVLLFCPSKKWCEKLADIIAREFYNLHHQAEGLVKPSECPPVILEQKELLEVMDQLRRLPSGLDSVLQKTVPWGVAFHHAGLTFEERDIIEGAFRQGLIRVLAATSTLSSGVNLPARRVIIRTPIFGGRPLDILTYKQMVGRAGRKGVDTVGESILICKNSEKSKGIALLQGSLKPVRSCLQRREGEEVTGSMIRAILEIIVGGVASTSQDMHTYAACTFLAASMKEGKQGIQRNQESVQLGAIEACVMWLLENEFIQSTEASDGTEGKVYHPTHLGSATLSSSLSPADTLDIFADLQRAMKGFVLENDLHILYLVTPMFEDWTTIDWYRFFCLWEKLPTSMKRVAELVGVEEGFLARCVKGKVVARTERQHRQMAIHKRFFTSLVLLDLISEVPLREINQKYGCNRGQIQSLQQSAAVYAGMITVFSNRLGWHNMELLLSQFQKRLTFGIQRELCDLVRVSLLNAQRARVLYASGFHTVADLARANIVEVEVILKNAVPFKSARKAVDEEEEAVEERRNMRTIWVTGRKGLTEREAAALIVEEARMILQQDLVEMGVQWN
- protocol_text: Pol theta ATPase activity, NADH oxidation-coupled enzymatic assay (ATPase NADH coupling: Standard Screening: hPolQ)
- Assay type: biochemical
- condition_description: Table 5; Pol theta (1-899) 5 nM, ATP, dT50 ssDNA
pIC50: −log10 of the molar value.
measurement_label: pIC50

compound	reported_value
COc1cnc(Cl)cc1-c1cc(C)ncc1C(=O)Nc1nnc(O[C@H]2CCC[C@@](C)(O)C2)s1 (racemic) [Example 177]	6.30 to 6.70
COc1cnc(Cl)c(F)c1-c1cc(C)ncc1C(=O)Nc1nnc(O[C@H]2CC[C@H](O)C2)s1 (single isomer, unassigned)	≥ 6.70
COc1cnc(Cl)cc1-c1cc(C)ncc1C(=O)Nc1nnc(O[C@@H]2CCO[C@H]2C)s1 (single isomer, unassigned)	≥ 6.70
COc1cnc(Cl)c(F)c1-c1cc(C)ncc1C(=O)Nc1nnc(O[C@@H]2CCC[C@@H](O)C2)s1 (single isomer, unassigned)	≥ 6.70
COc1cnc(Cl)cc1-c1cc(C)ncc1C(=O)Nc1nnc(O[C@H]2CCO[C@@H]2C)s1 (racemic) [Example 93]	≥ 6.70
COc1cnc(Cl)cc1-c1cc(C2CCCC2)ncc1C(=O)Nc1nnc(O[C@@H]2CCOC2)s1	6.00 to 6.30
COc1cnc(Br)cc1-c1cc(C)ncc1C(=O)Nc1nnc(O[C@H]2CCOC2)s1	≥ 6.70
COc1cnc(Cl)c(F)c1-c1cc(C)ncc1C(=O)Nc1nnc(O[C@H]2CCO[C@H]2C)s1 (single isomer, unassigned)	≥ 6.70
COc1cnc(Cl)cc1-c1cc(COC2CC2)ncc1C(=O)Nc1nnc(O[C@@H]2CCOC2)s1	≥ 6.70
COc1cnc(Cl)cc1-c1cc(C)ncc1C(=O)Nc1nnc(O[C@@H]2CO[C@@H](C)C2)s1 (single isomer, unassigned)	≥ 6.70
COc1cnc(Cl)cc1-c1cc(C)ncc1C(=O)Nc1nnc(O[C@H]2COC3(CCCC3)C2)s1 (single isomer, unassigned)	≥ 6.70
COc1cnc(Cl)cc1-c1cc(C)ncc1C(=O)Nc1nnc(O[C@H]2CC[C@@]3(CCO3)CC2)s1 (single isomer, unassigned)	≥ 6.70
COc1cnc(Cl)cc1-c1cc(C)ncc1C(=O)Nc1nnc(O[C@H]2CC[C@@H]([C@H](C)O)CC2)s1 (single isomer, unassigned)	≥ 6.70

* * *

- target_entity: Pol theta (1-899) (Homo sapiens, UniProt O75417)
- Construct: Pol theta (1-899) (5 nM) in assay buffer
- protocol_text: Pol theta ATPase activity, NADH oxidation-coupled enzymatic assay (ATPase NADH coupling: Standard Screening: hPolQ)
- Type: biochemical
- condition_description: Table 5; Pol theta (1-899) 5 nM, ATP, dT50 ssDNA
pIC50: −log10 of the molar value.

molecule	pIC50
Cc1cc(-c2cc(Cl)ncc2OC(F)F)c(C(=O)Nc2nnc(O[C@H]3CC[C@@](C)(O)CC3)s2)cn1 (single isomer, unassigned) [Example 220]	≥ 6.70
COc1cnc(Cl)cc1-c1cc(C)ncc1C(=O)Nc1nnc(O[C@@H]2CCC[C@@](C)(O)C2)s1 (single isomer, unassigned) [Example 182]	≥ 6.70
Cc1cc(-c2cc(Br)ncc2OC(F)F)c(C(=O)Nc2nnc(O[C@@H]3CCOC3)s2)cn1 [Example 195]	≥ 6.70

* * *

Below: a set of entries, each annotated with reported pIC50.
- target_entity: Pol theta (1-899) (Homo sapiens, UniProt O75417)
- Construct: Pol theta (1-899) (5 nM) in assay buffer
- protocol_text: Pol theta ATPase activity, NADH oxidation-coupled enzymatic assay (ATPase NADH coupling: Standard Screening: hPolQ)
- Type: biochemical
- condition_description: Pol theta (1-899) 5 nM, NADH oxidation-coupled ATPase assay; compounds of Table 3
pIC50: −log10 of the molar value.

compound	target_entity	pIC50
COc1nnc(NC(=O)c2cc(-c3cc(Cl)ncc3OC)ncc2C)s1	Pol theta (1-899) (Homo sapiens, UniProt O75417)	5.00 to 6.00
COc1nnc(NC(=O)c2cnc(C)cc2-c2ccc(S(C)(=O)=O)nc2)s1	Pol theta (1-899) (Homo sapiens, UniProt O75417)	5.00 to 6.00
COc1nnc(NC(=O)c2cc(OC(C)C)ncc2-c2cc(Cl)ncc2OC)s1	Pol theta (1-899) (Homo sapiens, UniProt O75417)	6.30 to 6.70
COc1nnc(NC(=O)c2cnc(C)cc2-c2ccc(S(C)(=O)=O)cc2)s1	Pol theta (1-899) (Homo sapiens, UniProt O75417)	5.00 to 6.00
Cc1cc(-c2cc(Cl)ncc2OC(F)F)c(C(=O)Nc2nnc(O[C@@H]3CCC[C@H](O)C3)s2)cn1 (single isomer, unassigned)	Pol theta (1-899) (Homo sapiens, UniProt O75417)	≥ 6.70
COc1nnc(NC(=O)c2cnc(C)cc2-c2cccc3c2ccn3C)s1	Pol theta (1-899) (Homo sapiens, UniProt O75417)	5.00 to 6.00
COc1nnc(NC(=O)c2cnc(C)cc2-c2ccc3c(c2)CNC3=O)s1	Pol theta (1-899) (Homo sapiens, UniProt O75417)	5.00 to 6.00
COc1nnc(NC(=O)c2cnc(C)cc2-c2cccc3ccccc23)s1	Pol theta (1-899) (Homo sapiens, UniProt O75417)	≥ 6.70
COc1nnc(NC(=O)c2cnc(C)cc2-c2ccc3occc(=O)c3c2)s1	Pol theta (1-899) (Homo sapiens, UniProt O75417)	5.00 to 6.00
COc1cnc(Cl)cc1-c1cc(C)ncc1C(=O)Nc1nnc(O[C@H]2CCCN([C@@H]3CCOC3)C2)s1	Pol theta (1-899) (Homo sapiens, UniProt O75417)	≥ 6.70
COc1cnc(C)c(F)c1-c1cc(C)ncc1C(=O)Nc1nnc(O[C@H]2CC[C@H](CO)CC2)s1	Pol theta (1-899) (Homo sapiens, UniProt O75417)	≥ 6.70
COc1nnc(NC(=O)c2cnc(C)cc2-c2ccc3c(c2)C(=O)NC3)s1	Pol theta (1-899) (Homo sapiens, UniProt O75417)	5.00 to 6.00
COc1cnc(C)cc1-c1cc(C)ncc1C(=O)Nc1nnc(OC(C)COCC(F)(F)F)s1 (centres unmarked)	Pol theta (1-899) (Homo sapiens, UniProt O75417)	≥ 6.70
COc1nnc(NC(=O)c2cnc(C)cc2-c2ccc(F)c(C(F)(F)F)c2)s1	Pol theta (1-899) (Homo sapiens, UniProt O75417)	≥ 6.70
COc1cnc(C)cc1-c1cc(C)ncc1C(=O)Nc1nnc(O[C@H]2COC[C@@H]2OC(C)C)s1	Pol theta (1-899) (Homo sapiens, UniProt O75417)	≥ 6.70
COc1cnc(Br)cc1-c1cc(C)ncc1C(=O)Nc1nnc(O[C@H]2CC[C@@H](CO)CC2)s1	Pol theta (1-899) (Homo sapiens, UniProt O75417)	≥ 6.70
COc1nnc(NC(=O)c2cnc(C)cc2-c2cnn(-c3ccccc3)c2C)s1	Pol theta (1-899) (Homo sapiens, UniProt O75417)	5.00 to 6.00

* * *

Quick list: IC50 per entry.
- target_entity: Pol theta (1-899) (Homo sapiens, UniProt O75417)
- Construct: Pol theta (1-899) (5 nM) in assay buffer
- protocol_text: Pol theta ATPase activity, NADH oxidation-coupled enzymatic assay (ATPase NADH coupling: Standard Screening: hPolQ)
- Type: biochemical
- condition_description: Pol theta (1-899) 5 nM, NADH oxidation-coupled ATPase assay; compounds of Table 3
measurement_label: IC50

compound	measurement_label	reported_value
COc1nnc(NC(=O)c2cnc(C)cc2-c2ccccc2)s1	IC50	1000 to 10000 nM
COc1nnc(NC(=O)c2cnc(C)cc2-c2cccc(N3CCCCC3)c2)s1	IC50	1000 to 10000 nM
Cc1cc(-c2cc(Cl)ncc2OC(F)F)c(C(=O)Nc2nnc(O[C@@H]3CCC[C@@H](O)C3)s2)cn1 (single isomer, unassigned)	IC50	≤ 200 nM
COc1cc(C)cc(-c2cc(C)ncc2C(=O)Nc2nnc(OC)s2)c1	IC50	500 to 1000 nM
COc1nnc(NC(=O)c2nnc(C)cc2-c2cc(Cl)ncc2OC)s1	IC50	200 to 500 nM
COc1nnc(NC(=O)c2cnc(C)cc2-c2cccc(NS(C)(=O)=O)c2)s1	IC50	1000 to 10000 nM
CC[S@+]([O-])c1cc(OC)c(-c2cc(C)ncc2C(=O)Nc2nnc(OC)s2)cc1Cl (single isomer, unassigned)	IC50	500 to 1000 nM
CNC(=O)c1ccc(-c2cc(C)ncc2C(=O)Nc2nnc(OC)s2)cn1	IC50	1000 to 10000 nM

* * *

Entries annotated with measured IC50
- target_entity: Pol theta (1-899) (Homo sapiens)
- Construct: Pol theta (1-899) (5 nM) in assay buffer
- protocol_text: Pol theta ATPase activity, NADH oxidation-coupled enzymatic assay (ATPase NADH coupling: Standard Screening: hPolQ)
- Type: biochemical
- condition_description: Table 5; Pol theta (1-899) 5 nM, ATP, dT50 ssDNA
measurement_label: IC50

molecule	measurement_label	reported_value
COc1cnc(Cl)c(F)c1-c1cc(C)ncc1C(=O)Nc1nnc(O[C@H]2CC[C@H](O)CC2)s1	IC50	≤ 200 nM
COc1cnc(Cl)c(F)c1-c1cc(C)ncc1C(=O)Nc1nnc(O[C@@H]2CCO[C@H]2C)s1 (single isomer, unassigned)	IC50	≤ 200 nM
COc1nnc(NC(=O)c2cnc(C)cc2-c2cc3cn[nH]c3cc2OC)s1	IC50	200 to 500 nM
COc1cnc(Cl)cc1-c1cc(C)ncc1C(=O)Nc1nnc(O[C@H]2C[C@@H](OC)C2)s1 (single isomer, unassigned)	IC50	≤ 200 nM
COc1cnc(Cl)cc1-c1cc(C)ncc1C(=O)Nc1nnc(O[C@@H]2CCC[C@H](OC)C2)s1 (single isomer, unassigned)	IC50	≤ 200 nM
COc1cnc(Cl)cc1-c1cc(C)ncc1C(=O)Nc1nnc(O[C@@H]2CC[C@H]2O)s1 (single isomer, unassigned) [Example 118]	IC50	≤ 200 nM
